From: patent EP2951180B1

Biological target: HDM2 (Homo sapiens, UniProt Q00987)
Construct: Thioredoxin (N); made in house; host or cells: E. coli strain BL21(DE3)Rosetta
Sequence (Q00987 17-125): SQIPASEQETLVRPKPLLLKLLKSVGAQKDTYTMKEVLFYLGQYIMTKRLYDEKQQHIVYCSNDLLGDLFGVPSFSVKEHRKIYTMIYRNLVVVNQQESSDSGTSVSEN
Test: HDM2 FRET assay (inhibition of binding of FITC labeled p53-pocket peptide to HDM2)
Settings: Table 22; read-out: FRET IC50
reported-metric: pIC50
Reminder that pIC50 means the negative base-10 logarithm of the concentration expressed in mol/L.

The examples below pair each entry with its known result.
{"compound": "C[C@@H](Nc1nc(-c2noc(=O)[nH]2)nc2nc(C3(O)CCC3)n(C[C@H]3CC[C@H](C)CC3)c12)C1CCC1", "system": "HDM2 (Homo sapiens, UniProt Q00987)", "reported": 7.71}
{"compound": "CCC(CO)c1nc2nc(-c3noc(=O)[nH]3)nc(N[C@H](C)C3CCC3)c2n1C[C@H]1CC[C@H](C)CC1 (stereo partly drawn)", "system": "HDM2 (Homo sapiens, UniProt Q00987)", "reported": 8.00}
{"compound": "C[C@@H](Nc1nc(-c2noc(=O)[nH]2)nc2nc(C(C)(O)C(F)(F)F)n(C[C@H]3CC[C@H](C)CC3)c12)C1CCC1 (single isomer, unassigned) [Example 22.12]", "system": "HDM2 (Homo sapiens, UniProt Q00987)", "reported": 7.57}
{"compound": "C[C@@H](Nc1nc(-c2noc(=O)[nH]2)nc2nc(C3(c4cscn4)CC3)n(C[C@H]3CC[C@H](C)CC3)c12)C1CCC1", "system": "HDM2 (Homo sapiens, UniProt Q00987)", "reported": 8.65}
{"compound": "C[C@@H](Nc1nc(-c2noc(=O)[nH]2)nc2nc(C3(c4ccc(F)cc4)CC3)n(C[C@H]3CC[C@H](C)CC3)c12)C1CCC1", "system": "HDM2 (Homo sapiens, UniProt Q00987)", "reported": 8.00}

Continue with the compound presented below.
Summary: C[C@@H](Nc1nc(-c2noc(=O)[nH]2)nc2nc(C(C)(O)c3cscn3)n(C[C@H]3CC[C@H](C)CC3)c12)C1CCC1 (stereo partly drawn) [Example 22.50] , HDM2 (Homo sapiens, UniProt Q00987), pIC50 = 7.99

---

Each item that follows carries a reported pIC50.
Biological target: HDM2 (Homo sapiens)
Construct: Thioredoxin (N); made in house; host or cells: E. coli strain BL21(DE3)Rosetta
Experiment: HDM2 FRET assay (inhibition of binding of FITC labeled p53-pocket peptide to HDM2)
Details: Table 22; read-out: FRET IC50
# pIC50: negative log10 of molar concentration; output just the value

Here are 2 molecules together with their reported answers.
{"molecule": "CC(c1ccccn1)c1nc2nc(-c3noc(=O)[nH]3)nc(N[C@H](C)C3CCC3)c2n1C[C@H]1CC[C@H](C)CC1 (stereo partly drawn)", "system": "HDM2 (Homo sapiens)", "reported": 8.19}
{"molecule": "C[C@@H](Nc1nc(-c2noc(=O)[nH]2)nc2nc(C(O)(c3ccccc3)C(F)(F)F)n(C[C@H]3CC[C@H](C)CC3)c12)C1CCC1 (single isomer, unassigned) [Example 22.25]", "system": "HDM2 (Homo sapiens)", "reported": 6.30}

Next item in the queue.
Value of measured pIC50 for the entry Cc1nc(C2(c3nc4nc(-c5noc(=O)[nH]5)nc(N[C@H](C)C5CCC5)c4n3C[C@H]3CC[C@H](C)CC3)CC2)c(C)s1 : 8.52
